tested on: LG0567-F671-PDC multi-cell spheroid viability; test: Anticancer human tumor LG0567-F671-PDC patient-derived lung adenocarcinoma cell line growth inhibition [IpAb]; conditions: curve of first compound; second compound 0.01 µM;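 note: viability read after 7 days of drug exposure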
A collection of molecules and their measured log10(IC50)
Note: values are log10 of IC50 expressed in nM.

Cn1nccc1Nc1nccc(-c2ccn(C(CO)c3ccc(Cl)c(F)c3)c(=O)c2)n1 (stereo not given) + CCN1CCN(Cc2ccc(Nc3ncc(F)c(-c4cc(F)c5nc(C)n(C(C)C)c5c4)n3)nc2)CC1 = 2.08
C=CCn1c(=O)c2cnc(Nc3ccc(N4CCN(C)CC4)cc3)nc2n1-c1cccc(C(C)(C)O)n1 + CCN1CCN(Cc2ccc(Nc3ncc(F)c(-c4cc(F)c5nc(C)n(C(C)C)c5c4)n3)nc2)CC1 = 2.90
COc1c(OCCCN2CCOCC2)ccc2c3n(c(=NC(=O)c4cnc(N)nc4)nc12)CCN3 + CCN1CCN(Cc2ccc(Nc3ncc(F)c(-c4cc(F)c5nc(C)n(C(C)C)c5c4)n3)nc2)CC1 = 1.88
Cc1nc(NC(=O)N2CCCC2C(N)=O)sc1-c1ccnc(C(C)(C)C(F)(F)F)c1 (stereo not given) + CCN1CCN(Cc2ccc(Nc3ncc(F)c(-c4cc(F)c5nc(C)n(C(C)C)c5c4)n3)nc2)CC1 = 3.03
Cn1ncc(Cl)c1-c1cc(C(=O)NC(CN)Cc2cccc(F)c2)sc1Cl (stereo not given) + CCN1CCN(Cc2ccc(Nc3ncc(F)c(-c4cc(F)c5nc(C)n(C(C)C)c5c4)n3)nc2)CC1 = 3.27
Cn1cnc2c(F)c(Nc3ccc(Br)cc3Cl)c(C(=O)NOCCO)cc21 + CCN1CCN(Cc2ccc(Nc3ncc(F)c(-c4cc(F)c5nc(C)n(C(C)C)c5c4)n3)nc2)CC1 = 1.28
CC1(C)CCC(CN2CCN(c3ccc(C(=O)NS(=O)(=O)c4ccc(NCC5CCOCC5)c([N+](=O)[O-])c4)c(Oc4cnc5[nH]ccc5c4)c3)CC2)=C(c2ccc(Cl)cc2)C1 + CCN1CCN(Cc2ccc(Nc3ncc(F)c(-c4cc(F)c5nc(C)n(C(C)C)c5c4)n3)nc2)CC1 = 3.86

The record that follows has no log10(IC50) shown yet.
Exercise: Tell me the measured log10(IC50) of CC(C)n1nc(-c2ccc3oc(N)nc3c2)c2c(N)ncnc21 + CCN1CCN(Cc2ccc(Nc3ncc(F)c(-c4cc(F)c5nc(C)n(C(C)C)c5c4)n3)nc2)CC1 , please.
Key: 1.48
